Experimental details: Metabolic stability, rat liver microsomes
Type: in vitro ADME
Test parameters: 30 min, 1 μM
Measurement kind: Metabolic Stability (% Remain, 30 min) Rat (% Remain)

COC(=O)c1c2c(c3ccccc3c1O)OC(C)(C)C=C2 : 19

I: CNC(=O)c1c2c(c3ccccc3c1O)OC(C)(C)C=C2
II: CN(C)CCCOC(=O)c1c2c(c3ccccc3c1O)OC(C)(C)C=C2
III: CC1(C)C=Cc2c(C(N)=O)c(O)c3ccccc3c2O1
IV: CN1CCC(OC(=O)c2c3c(c4ccccc4c2O)OC(C)(C)C=C3)CC1
V: CC1(C)C=Cc2c(C(=O)OCCN3CCOCC3)c(O)c3cc(C(F)(F)F)ccc3c2O1 [15c]
Ranking field: Metabolic Stability (% Remain, 30 min) Rat; order: falling. Output the labels ranked as instructed.
V, IV, II, III, I
(V: 52 % Remain, IV: 23 % Remain, II: 7 % Remain, III: 2 % Remain, I: 1 % Remain)
